So I've got a bunch of variants here, and I need their protein stability index values.
B1: SETD8 (parent)
chain: GKQAPRKKAQGKTQQNRKLTDFYP

Variants of: B1
Experiment: protein stability index of a GFP-peptide fusion (GPS, HEK-293T) (PSI 1-6); higher = more stable;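 further: lentivirally expressed fusions sorted by FACS into six bins by GFP to DsRed ratio, PSI derived from sequencing read proportions per bin multiplied by bin number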
Conditions: c terminus: a fixed tail appended
Answer with a number only.

Q. Data request, read-out protein stability index, for `N16K`
A. 2.91

Q. What would you report for `K18P` ?
A. 2.96

Q. Proceed to `N16A`
A. 3.02
